Biological target: UniProt:P32245
Sequence (P32245 whole entry): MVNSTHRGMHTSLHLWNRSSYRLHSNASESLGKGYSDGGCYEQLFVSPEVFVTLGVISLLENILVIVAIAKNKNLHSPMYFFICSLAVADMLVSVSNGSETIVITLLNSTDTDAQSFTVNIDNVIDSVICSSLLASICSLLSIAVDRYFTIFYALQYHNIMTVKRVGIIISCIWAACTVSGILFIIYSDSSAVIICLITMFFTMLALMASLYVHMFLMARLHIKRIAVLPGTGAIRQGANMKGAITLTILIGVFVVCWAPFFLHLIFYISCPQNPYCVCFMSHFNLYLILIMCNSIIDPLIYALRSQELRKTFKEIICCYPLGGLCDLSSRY
Test: Antagonist activity at human MC4R in CHO cells measured for 24 hrs
Assay type: cell-based
This section presents compounds with their documented IC50 values.
Your reply should be a number followed by the unit it is expressed in.

As a guide, the following entries are already answered.
{"columns": ["compound", "readout kind", "result"],
 "data": [
  ["Cc1nc2c(cc1-c1cnn(C)c1)CC[C@@]1(CCN(C(=O)Cc3ccc(F)cc3)C1)N2", "IC50", "39 nM"],
  ["COc1ccc2nc(N[C@H]3CCN(C(=O)Cc4cc(F)cc(F)c4)C3)ccc2c1", "IC50", "7.8 nM"]
]}

Query: Please give the documented IC50 of `COc1cc([C@@H](C)C(=O)N2CC[C@@]3(CCc4cc(-c5nc(C(F)(F)F)n(C)n5)c(C)nc4N3)C2)c(F)cn1`
Response: 8.4 nM

Query: Answer with the recorded IC50 of Cc1nc2c(cc1-c1cnn(C)c1)CC1(CCN(C(=O)Cc3ccc(F)cc3)C1)N2 (racemic) only.
Response: 20000 nM

Taken from ChEMBL document CHEMBL5316345.
